system: SW1271 complex spheroids with HUVEC/MSC, growth, % test/control; assay: Anticancer human tumor SW1271 cell line growth inhibition [AhR]; details: second compound 10 µM; first compound 0.000949 µM; stronger effect = lower value;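 further: spheroids exposed to agents for 7 days before readout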
viability, T/C: recorded values
# unit: % | format: bare number

In the examples that follow, each entry is paired with its recorded viability, T/C.
>>> df
                                   compound  quantitative_readout
0  Nc1ncn(C2CC(O)C(CO)S2)c(=O)n1 (stereo not drawn) + Cc1ccccc1N=Nc1ccc(NC(=O)c2ccnn2C)c(C)c1                   103
1  CCc1c2c(nc3ccc(O)cc13)-c1cc3c(c(=O)n1C2)COC(=O)[C@]3(O)CC + CC(CO)NC(=O)c1cc(-c2ccc(Cl)cc2)nn(-c2cnn(C)c2)c1=O                  71.6

Now let's try a different one.
Prompt: Retrieve viability, T/C measured for Nc1ncn(C2CC(O)C(CO)S2)c(=O)n1 (stereo not drawn) + CC(CO)NC(=O)c1cc(-c2ccc(Cl)cc2)nn(-c2cnn(C)c2)c1=O and print it.
Response: 87.3

---

tested on: SW1271 complex spheroids with HUVEC/MSC, growth, % test/control; assay: Anticancer human tumor SW1271 cell line growth inhibition [AhR]; settings: second compound 0.316 µM; first compound 0.0949 µM; active means viability on the fitted dose curve at most 10% of control; inactive means the rest;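 further: spheroids exposed to agents for 7 days before readout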
Give your call using only these classes: active, inactive

Worked set:
molecule	assigned_label
CCN(c1cc(-c2ccc(CN3CCOCC3)cc2)cc(C(=O)NCc2c(C)cc(C)[nH]c2=O)c1C)C1CCOCC1 + CC(CO)NC(=O)c1cc(-c2ccc(Cl)cc2)nn(-c2cnn(C)c2)c1=O	inactive
CC(C)CC(NC(=O)C(Cc1ccccc1)NC(=O)c1cnccn1)B(O)O (configuration not stated) + Cc1ccccc1N=Nc1ccc(NC(=O)c2ccnn2C)c(C)c1	active
CCc1c2c(nc3ccc(O)cc13)-c1cc3c(c(=O)n1C2)COC(=O)[C@]3(O)CC + CC(CO)NC(=O)c1cc(-c2ccc(Cl)cc2)nn(-c2cnn(C)c2)c1=O	inactive
CCc1c2c(nc3ccc(O)cc13)-c1cc3c(c(=O)n1C2)COC(=O)[C@]3(O)CC + Cc1ccccc1N=Nc1ccc(NC(=O)c2ccnn2C)c(C)c1	inactive
Nc1ncn(C2CC(O)C(CO)S2)c(=O)n1 (configuration not stated) + CC(CO)NC(=O)c1cc(-c2ccc(Cl)cc2)nn(-c2cnn(C)c2)c1=O	inactive

Prompt: Look up the recorded call for CCc1c2c(nc3ccc(O)cc13)-c1cc3c(c(=O)n1C2)COC(=O)[C@]3(O)CC + Cc1cncc(-c2nc(NCCc3c[nH]c4ccccc34)c3ncn(C(C)C)c3n2)c1 in this test.
Response: inactive

Prompt: Look up the recorded call for O=C(C=Cn1cnc(-c2cc(C(F)(F)F)cc(C(F)(F)F)c2)n1)NNc1cnccn1 + Cc1cncc(-c2nc(NCCc3c[nH]c4ccccc34)c3ncn(C(C)C)c3n2)c1 in this test.
Response: inactive

Prompt: Look up the recorded call for CCN(c1cc(-c2ccc(CN3CCOCC3)cc2)cc(C(=O)NCc2c(C)cc(C)[nH]c2=O)c1C)C1CCOCC1 + Cc1ccccc1N=Nc1ccc(NC(=O)c2ccnn2C)c(C)c1 in this test.
Response: inactive

Prompt: Look up the recorded call for CCN(c1cc(-c2ccc(CN3CCOCC3)cc2)cc(C(=O)NCc2c(C)cc(C)[nH]c2=O)c1C)C1CCOCC1 + Cc1cncc(-c2nc(NCCc3c[nH]c4ccccc34)c3ncn(C(C)C)c3n2)c1 in this test.
Response: inactive

Prompt: Look up the recorded call for CC(C)CC(NC(=O)C(Cc1ccccc1)NC(=O)c1cnccn1)B(O)O (configuration not stated) + CC(CO)NC(=O)c1cc(-c2ccc(Cl)cc2)nn(-c2cnn(C)c2)c1=O in this test.
Response: active

Prompt: Look up the recorded call for O=C(C=Cn1cnc(-c2cc(C(F)(F)F)cc(C(F)(F)F)c2)n1)NNc1cnccn1 + CC(CO)NC(=O)c1cc(-c2ccc(Cl)cc2)nn(-c2cnn(C)c2)c1=O in this test.
Response: inactive

Prompt: Look up the recorded call for Nc1ncn(C2CC(O)C(CO)S2)c(=O)n1 (configuration not stated) + Cc1ccccc1N=Nc1ccc(NC(=O)c2ccnn2C)c(C)c1 in this test.
Response: inactive

---

tested on: SW1271 complex spheroids with HUVEC/MSC, growth, % test/control; test: Anticancer human tumor SW1271 cell line growth inhibition [AhR]; settings: second compound 10 µM; first compound 0.003 µM; stronger effect = lower value;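 further: spheroids exposed to agents for 7 days before readout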
assay_endpoint: viability, T/C

In [3]: df
Out[3]:
                                   compound  result
0  Nc1ncn(C2CC(O)C(CO)S2)c(=O)n1 (centres undefined) + Cc1ccccc1N=Nc1ccc(NC(=O)c2ccnn2C)c(C)c1   95.3%
1  Nc1ncn(C2CC(O)C(CO)S2)c(=O)n1 (centres undefined) + Cc1cncc(-c2nc(NCCc3c[nH]c4ccccc34)c3ncn(C(C)C)c3n2)c1   44.8%
2  CCc1c2c(nc3ccc(O)cc13)-c1cc3c(c(=O)n1C2)COC(=O)[C@]3(O)CC + Cc1cncc(-c2nc(NCCc3c[nH]c4ccccc34)c3ncn(C(C)C)c3n2)c1     45%

Prompt: Retrieve viability, T/C measured for CC(C)CC(NC(=O)C(Cc1ccccc1)NC(=O)c1cnccn1)B(O)O (centres undefined) + CC(CO)NC(=O)c1cc(-c2ccc(Cl)cc2)nn(-c2cnn(C)c2)c1=O and print it.
Response: 75.2%

---

system: SW1271 complex spheroids with HUVEC/MSC, growth, % test/control; assay: Anticancer human tumor SW1271 cell line growth inhibition [AhR]; conditions: second compound 10 µM; first compound 0.1 µM; stronger effect = lower value;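 further: spheroids exposed to agents for 7 days before readout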
assay_endpoint: viability, T/C (%)
# unit: % | format: bare number

compound	unit_label	viability, T/C
Cn1ncnc1C1c2n[nH]c(=O)c3cc(F)cc(c23)NC1c1ccc(F)cc1 (configuration not stated) + CC(CO)NC(=O)c1cc(-c2ccc(Cl)cc2)nn(-c2cnn(C)c2)c1=O	%	76.1
COc1cc(Nc2ncc3c(n2)-c2ccc(Cl)cc2C(c2c(F)cccc2OC)=NC3)ccc1C(=O)O + Cc1ccccc1N=Nc1ccc(NC(=O)c2ccnn2C)c(C)c1	%	94.1
CC1(C)CCC(CN2CCN(c3ccc(C(=O)NS(=O)(=O)c4ccc(NCC5CCOCC5)c([N+](=O)[O-])c4)c(Oc4cnc5[nH]ccc5c4)c3)CC2)=C(c2ccc(Cl)cc2)C1 + Cc1ccccc1N=Nc1ccc(NC(=O)c2ccnn2C)c(C)c1	%	99.3
NS(=O)(=O)OCC1CC(n2ccc3c(NC4CCc5ccccc54)ncnc32)CC1O (configuration not stated) + Cc1ccccc1N=Nc1ccc(NC(=O)c2ccnn2C)c(C)c1	%	132
O=C(C=Cc1cccc(S(=O)(=O)Nc2ccccc2)c1)NO + Cc1cncc(-c2nc(NCCc3c[nH]c4ccccc34)c3ncn(C(C)C)c3n2)c1	%	53.5

Prompt: Retrieve viability, T/C measured for COc1cccc2c1C(=O)c1c(O)c3c(c(O)c1C2=O)CC(O)(C(=O)CO)CC3OC1CC(N)C(O)C(C)O1 (configuration not stated) + Cc1ccccc1N=Nc1ccc(NC(=O)c2ccnn2C)c(C)c1 and print it.
Response: 50.4

Prompt: Retrieve viability, T/C measured for Nc1ccccc1NC(=O)c1ccc(CNC(=O)OCc2cccnc2)cc1 + Cc1cncc(-c2nc(NCCc3c[nH]c4ccccc34)c3ncn(C(C)C)c3n2)c1 and print it.
Response: 46.3

Prompt: Retrieve viability, T/C measured for Nc1ccn(C2OC(CO)C(O)C2(F)F)c(=O)n1 (configuration not stated) + Cc1cncc(-c2nc(NCCc3c[nH]c4ccccc34)c3ncn(C(C)C)c3n2)c1 and print it.
Response: 38.2

---

system: SW1271 complex spheroids with HUVEC/MSC, growth, % test/control; experiment: Anticancer human tumor SW1271 cell line growth inhibition [AhR]; details: second compound 10 µM; first compound 0.1 µM; stronger effect = lower value;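 further: spheroids exposed to agents for 7 days before readout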
viability, T/C: recorded values

In the examples that follow, each entry is paired with its recorded viability, T/C.
molecule	assayed_system	viability, T/C
CC(C)c1c(-c2ccccc2)nc2c(C#N)c[nH]n2c1=O + CC(CO)NC(=O)c1cc(-c2ccc(Cl)cc2)nn(-c2cnn(C)c2)c1=O	SW1271 complex spheroids with HUVEC/MSC, growth, % test/control	80.8%
COc1cc(Nc2ncc3c(n2)-c2ccc(Cl)cc2C(c2c(F)cccc2OC)=NC3)ccc1C(=O)O + Cc1cncc(-c2nc(NCCc3c[nH]c4ccccc34)c3ncn(C(C)C)c3n2)c1	SW1271 complex spheroids with HUVEC/MSC, growth, % test/control	50.7%
COc1cc(C2c3cc4c(cc3C(OC3OC5COC(C)OC5C(O)C3O)C3COC(=O)C23)OCO4)cc(OC)c1O (stereo unspecified) + Cc1cncc(-c2nc(NCCc3c[nH]c4ccccc34)c3ncn(C(C)C)c3n2)c1	SW1271 complex spheroids with HUVEC/MSC, growth, % test/control	39.6%
Nc1ncn(C2CC(O)C(CO)O2)c(=O)n1 (stereo unspecified) + Cc1ccccc1N=Nc1ccc(NC(=O)c2ccnn2C)c(C)c1	SW1271 complex spheroids with HUVEC/MSC, growth, % test/control	71.5%
Nc1ccn(C2OC(CO)C(O)C2(F)F)c(=O)n1 (stereo unspecified) + CC(CO)NC(=O)c1cc(-c2ccc(Cl)cc2)nn(-c2cnn(C)c2)c1=O	SW1271 complex spheroids with HUVEC/MSC, growth, % test/control	58.1%

Prompt: Retrieve viability, T/C measured for COc1cccc2c1C(=O)c1c(O)c3c(c(O)c1C2=O)CC(O)(C(=O)CO)CC3OC1CC(N)C(O)C(C)O1 (stereo unspecified) + Cc1cncc(-c2nc(NCCc3c[nH]c4ccccc34)c3ncn(C(C)C)c3n2)c1 and print it.
Response: 38.4%
